Could you please report measured Activity for the items listed next?
biological target: Protein cereblon/Tyrosine-protein kinase BTK (Homo sapiens, UniProt Q06187+Q96SW2); test: Protac activity at BTK/CRBN in human JeKo-1 cells assessed as induction of BTK degradation at 100 nM measured after 1 hr by Western blot analysis relative to control; type: cell-based
Sequence (Q06187 2-659 limits assumed): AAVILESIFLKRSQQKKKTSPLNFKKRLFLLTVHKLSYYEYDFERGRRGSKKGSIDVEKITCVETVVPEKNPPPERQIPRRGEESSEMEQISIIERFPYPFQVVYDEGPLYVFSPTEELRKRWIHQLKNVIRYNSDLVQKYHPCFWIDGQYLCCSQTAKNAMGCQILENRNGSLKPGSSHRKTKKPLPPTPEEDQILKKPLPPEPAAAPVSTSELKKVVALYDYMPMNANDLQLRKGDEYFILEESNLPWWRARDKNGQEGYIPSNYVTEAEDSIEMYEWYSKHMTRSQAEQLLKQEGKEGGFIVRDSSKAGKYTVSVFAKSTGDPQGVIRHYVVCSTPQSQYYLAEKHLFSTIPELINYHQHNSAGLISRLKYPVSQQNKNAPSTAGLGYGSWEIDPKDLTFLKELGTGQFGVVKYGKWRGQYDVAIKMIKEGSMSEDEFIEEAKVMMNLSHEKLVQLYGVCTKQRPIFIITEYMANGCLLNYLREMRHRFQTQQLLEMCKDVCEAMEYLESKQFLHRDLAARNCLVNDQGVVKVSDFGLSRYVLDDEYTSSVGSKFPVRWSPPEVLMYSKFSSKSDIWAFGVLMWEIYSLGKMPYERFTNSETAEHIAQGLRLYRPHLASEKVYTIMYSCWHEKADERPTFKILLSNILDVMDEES
Sequence (Q96SW2 whole entry partner): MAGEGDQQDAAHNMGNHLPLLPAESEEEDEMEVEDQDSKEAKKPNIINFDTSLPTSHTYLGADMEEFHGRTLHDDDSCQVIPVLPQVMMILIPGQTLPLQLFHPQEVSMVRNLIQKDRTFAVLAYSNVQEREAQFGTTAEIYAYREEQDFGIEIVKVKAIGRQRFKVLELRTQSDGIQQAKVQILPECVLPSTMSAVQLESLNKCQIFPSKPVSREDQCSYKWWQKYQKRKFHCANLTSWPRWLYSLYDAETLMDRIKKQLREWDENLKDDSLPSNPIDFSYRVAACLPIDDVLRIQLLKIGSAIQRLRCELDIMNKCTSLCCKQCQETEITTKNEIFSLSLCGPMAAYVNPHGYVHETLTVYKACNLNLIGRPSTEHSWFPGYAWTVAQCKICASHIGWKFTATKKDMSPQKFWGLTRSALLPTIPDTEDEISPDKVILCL
Give bare numbers, in %.

Please review the following examples before continuing.
Activity reading for O=C1CCC(N2C(=O)c3cccc(NCCCCNC(=O)N[C@H]4CC[C@@H](Nc5ncnc6[nH]cc(C(=O)c7ccc(Oc8ccccc8)cc7Cl)c56)CC4)c3C2=O)C(=O)N1 (stereo partly drawn) : 6.8

Activity reading for O=C(CNc1ncnc2[nH]cc(C(=O)c3ccc(Oc4ccccc4)cc3Cl)c12)NCCOCCOCCOCCOCCOCCOCCOCCNc1cccc2c1C(=O)N(C1CCC(=O)NC1=O)C2=O (stereo not drawn) : 14.7

Query compound follows.
Activity reading for O=C1CCC(N2C(=O)c3cccc(NCCOCCOCCOCCOCCNC(=O)N[C@H]4CC[C@@H](Nc5ncnc6[nH]cc(C(=O)c7ccc(Oc8ccccc8)cc7Cl)c56)CC4)c3C2=O)C(=O)N1 (stereo partly drawn) : 88.8

====

biological target: Tyrosine-protein kinase BTK (Homo sapiens, UniProt Q06187); assay: Inhibition of full length N-terminal GST fusion tagged human BTK expressed in baculovirus expression system at 50 nM using FAM-P2 peptide solution as substrate incubated for 10 mins in presence of ATP by microplate reader assay relative to control
Classify as follows. Reported inhibition greater than or equal to 7%: Criterion met. Reported inhibition below: Criterion not met.

Solved cases below.
Problem: Decide: inhibition of O=C1CCC(N2C(=O)c3cccc(NCCCCNC(=O)N[C@H]4CC[C@@H](Nc5ncnc6[nH]cc(C(=O)c7ccc(Oc8ccccc8)cc7Cl)c56)CC4)c3C2=O)C(=O)N1 (stereo not given in full) >= 7%?
Result: Criterion met

Problem: Decide: inhibition of O=C1CCC(N2C(=O)c3cccc(NCCOCCOCCOCCNC(=O)N[C@H]4CC[C@@H](Nc5ncnc6[nH]cc(C(=O)c7ccc(Oc8ccccc8)cc7Cl)c56)CC4)c3C2=O)C(=O)N1 (stereo not given in full) >= 7%?
Result: Criterion met

Problem: Decide: inhibition of O=C(O)CNc1ncnc2[nH]cc(C(=O)c3ccc(Oc4ccccc4)cc3Cl)c12 >= 7%?
Result: Criterion met

Next:
Problem: Decide: inhibition of N[C@H]1CC[C@@H](Nc2ncnc3[nH]cc(C(=O)c4ccc(Oc5ccccc5)cc4Cl)c23)CC1 >= 7%?
Result: Criterion met

Problem: Decide: inhibition of O=C(CNc1ncnc2[nH]cc(C(=O)c3ccc(Oc4ccccc4)cc3Cl)c12)NCCOCCOCCOCCOCCNc1cccc2c1C(=O)N(C1CCC(=O)NC1=O)C2=O (stereo not given) >= 7%?
Result: Criterion not met

====

biological target: Tyrosine-protein kinase BTK (Homo sapiens, UniProt Q06187); assay: Inhibition of full length N-terminal GST fusion tagged human BTK expressed in baculovirus expression system at 500 nM using FAM-P2 peptide solution as substrate incubated for 10 mins in presence of ATP by microplate reader assay
Classify as follows. Reported inhibition greater than or equal to 40%: MET. Reported inhibition below: NOT MET.

Problem: Decide: inhibition of O=C1CCC(N2C(=O)c3cccc(NCCOCCOCCOCCOCCNC(=O)N[C@H]4CC[C@@H](Nc5ncnc6[nH]cc(C(=O)c7ccc(Oc8ccccc8)cc7Cl)c56)CC4)c3C2=O)C(=O)N1 (stereo partly specified) >= 40%?
Result: MET

Problem: Decide: inhibition of O=C(CNc1ncnc2[nH]cc(C(=O)c3ccc(Oc4ccccc4)cc3Cl)c12)NCCOCCOCCOCCOCCNc1cccc2c1C(=O)N(C1CCC(=O)NC1=O)C2=O (stereo unspecified) >= 40%?
Result: NOT MET

Problem: Decide: inhibition of O=C(CNc1ncnc2[nH]cc(C(=O)c3ccc(Oc4ccccc4)cc3Cl)c12)NCCOCCOCCNc1cccc2c1C(=O)N(C1CCC(=O)NC1=O)C2=O (stereo unspecified) >= 40%?
Result: NOT MET

Problem: Decide: inhibition of O=C(CNc1ncnc2[nH]cc(C(=O)c3ccc(Oc4ccccc4)cc3Cl)c12)NCCNc1cccc2c1C(=O)N(C1CCC(=O)NC1=O)C2=O (stereo unspecified) >= 40%?
Result: NOT MET

Next:
Problem: Decide: inhibition of O=C(CNc1ncnc2[nH]cc(C(=O)c3ccc(Oc4ccccc4)cc3Cl)c12)NCCOCCOCCOCCOCCOCCNc1cccc2c1C(=O)N(C1CCC(=O)NC1=O)C2=O (stereo unspecified) >= 40%?
Result: NOT MET

Problem: Decide: inhibition of N[C@H]1CC[C@@H](Nc2ncnc3[nH]cc(C(=O)c4ccc(Oc5ccccc5)cc4Cl)c23)CC1 >= 40%?
Result: MET

====

test: Apparent permeability across apical to basolateral side in human Caco-2 cells; type: ADME, cell-based
observed_property: Papp A→B

Papp A→B reading for O=C1CCC(N2C(=O)c3cccc(NCCOCCOCCOCCOCCOCCNC(=O)N[C@H]4CC[C@@H](Nc5ncnc6[nH]cc(C(=O)c7ccc(Oc8ccccc8)cc7Cl)c56)CC4)c3C2=O)C(=O)N1 (stereo partly specified) : < 5.3 ×10⁻⁶ cm/s

====

Could you please report measured Activity for the items listed next?
target: Protein cereblon/Tyrosine-protein kinase BTK (Homo sapiens, UniProt Q06187+Q96SW2); test: Protac activity at BTK/CRBN in human JeKo-1 cells assessed as induction of BTK degradation at 100 nM measured after 1 hr by Western blot analysis relative to control; type: cell-based
Please append the unit to your numeric answer.

Please review the following examples before continuing.
Activity reading for O=C(CNc1ncnc2[nH]cc(C(=O)c3ccc(Oc4ccccc4)cc3Cl)c12)NCCOCCOCCOCCNc1cccc2c1C(=O)N(C1CCC(=O)NC1=O)C2=O (stereo not drawn) : 56.2%

Activity reading for O=C1CCC(N2C(=O)c3cccc(NCCOCCOCCNC(=O)N[C@H]4CC[C@@H](Nc5ncnc6[nH]cc(C(=O)c7ccc(Oc8ccccc8)cc7Cl)c56)CC4)c3C2=O)C(=O)N1 (stereo partly drawn) : 22.8%

Query compound follows.
Activity reading for O=C(CNc1ncnc2[nH]cc(C(=O)c3ccc(Oc4ccccc4)cc3Cl)c12)NCCOCCOCCOCCOCCOCCNc1cccc2c1C(=O)N(C1CCC(=O)NC1=O)C2=O (stereo not drawn) : 64.2%

====

target: Protein cereblon/Tyrosine-protein kinase BTK (Homo sapiens, UniProt Q06187+Q96SW2); experiment: Protac activity at BTK/CRBN in human JeKo-1 cells assessed as induction of BTK degradation measured after 1 hr by Western blot analysis; assay type: cell-based
Sequence (Q06187 whole entry): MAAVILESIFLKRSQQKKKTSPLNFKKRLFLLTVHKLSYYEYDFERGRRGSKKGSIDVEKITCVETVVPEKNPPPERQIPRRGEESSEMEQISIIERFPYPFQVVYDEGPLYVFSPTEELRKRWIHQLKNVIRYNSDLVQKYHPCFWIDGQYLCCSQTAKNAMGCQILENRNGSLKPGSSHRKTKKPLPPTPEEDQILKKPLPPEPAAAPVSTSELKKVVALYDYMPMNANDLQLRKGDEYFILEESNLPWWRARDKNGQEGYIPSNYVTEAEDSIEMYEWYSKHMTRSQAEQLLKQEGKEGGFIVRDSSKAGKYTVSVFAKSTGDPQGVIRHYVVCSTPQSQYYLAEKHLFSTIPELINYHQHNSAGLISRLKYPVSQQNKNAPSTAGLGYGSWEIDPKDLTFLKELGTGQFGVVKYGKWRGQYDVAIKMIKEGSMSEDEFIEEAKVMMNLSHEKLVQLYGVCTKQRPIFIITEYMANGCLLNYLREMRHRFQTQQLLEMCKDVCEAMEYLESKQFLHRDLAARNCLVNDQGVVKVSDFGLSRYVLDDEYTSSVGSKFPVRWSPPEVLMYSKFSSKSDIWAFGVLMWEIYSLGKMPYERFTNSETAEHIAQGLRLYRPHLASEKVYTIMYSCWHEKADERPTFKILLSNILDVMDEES
Sequence (Q96SW2 whole entry): as the sequence (Q96SW2 whole entry partner) above
observed_property: DC50 (nM)
Numbers only, in nM.

Please review the following examples before continuing.
Simply: O=C(CNc1ncnc2[nH]cc(C(=O)c3ccc(Oc4ccccc4)cc3Cl)c12)NCCOCCOCCOCCOCCNc1cccc2c1C(=O)N(C1CCC(=O)NC1=O)C2=O (configuration not stated) , Protein cereblon/Tyrosine-protein kinase BTK (Homo sapiens, UniProt Q06187+Q96SW2), DC50 = 9.4

Simply: O=C(CNc1ncnc2[nH]cc(C(=O)c3ccc(Oc4ccccc4)cc3Cl)c12)NCCOCCOCCOCCOCCOCCOCCNc1cccc2c1C(=O)N(C1CCC(=O)NC1=O)C2=O (configuration not stated) , Protein cereblon/Tyrosine-protein kinase BTK (Homo sapiens, UniProt Q06187+Q96SW2), DC50 = 8.3

Simply: O=C1CCC(N2C(=O)c3cccc(NCCOCCOCCOCCOCCNC(=O)N[C@H]4CC[C@@H](Nc5ncnc6[nH]cc(C(=O)c7ccc(Oc8ccccc8)cc7Cl)c56)CC4)c3C2=O)C(=O)N1 (some centres not stated) , Protein cereblon/Tyrosine-protein kinase BTK (Homo sapiens, UniProt Q06187+Q96SW2), DC50 = 12.1

Simply: O=C(CNc1ncnc2[nH]cc(C(=O)c3ccc(Oc4ccccc4)cc3Cl)c12)NCCOCCOCCOCCNc1cccc2c1C(=O)N(C1CCC(=O)NC1=O)C2=O (configuration not stated) , Protein cereblon/Tyrosine-protein kinase BTK (Homo sapiens, UniProt Q06187+Q96SW2), DC50 = 28.5

Look up DC50 for the entries below, preserving their order.
1. O=C(CNc1ncnc2[nH]cc(C(=O)c3ccc(Oc4ccccc4)cc3Cl)c12)NCCOCCOCCOCCOCCOCCNc1cccc2c1C(=O)N(C1CCC(=O)NC1=O)C2=O (configuration not stated)
2. O=C1CCC(N2C(=O)c3cccc(NCCOCCOCCOCCNC(=O)N[C@H]4CC[C@@H](Nc5ncnc6[nH]cc(C(=O)c7ccc(Oc8ccccc8)cc7Cl)c56)CC4)c3C2=O)C(=O)N1 (some centres not stated)
3. O=C1CCC(N2C(=O)c3cccc(NCCOCCOCCOCCOCCOCCNC(=O)N[C@H]4CC[C@@H](Nc5ncnc6[nH]cc(C(=O)c7ccc(Oc8ccccc8)cc7Cl)c56)CC4)c3C2=O)C(=O)N1 (some centres not stated)

Result:
[8.1, 32.3, 41.9]

====

molecular target: Protein cereblon/Tyrosine-protein kinase BTK (Homo sapiens, UniProt Q06187+Q96SW2); assay: Protac activity at BTK/CRBN in human JeKo-1 cells assessed as induction of BTK degradation at 100 nM measured after 1 hr by Western blot analysis relative to control; format: cell-based
observed_property: Activity (%)
Give bare numbers, in %.

Activity reading for O=C(CNc1ncnc2[nH]cc(C(=O)c3ccc(Oc4ccccc4)cc3Cl)c12)NCCCCNc1cccc2c1C(=O)N(C1CCC(=O)NC1=O)C2=O (stereo not drawn) : 24.9

Activity reading for O=C1CCC(N2C(=O)c3cccc(NCCOCCOCCOCCNC(=O)N[C@H]4CC[C@@H](Nc5ncnc6[nH]cc(C(=O)c7ccc(Oc8ccccc8)cc7Cl)c56)CC4)c3C2=O)C(=O)N1 (stereo partly drawn) : 44.1

Query compound follows.
Activity reading for O=C(CNc1ncnc2[nH]cc(C(=O)c3ccc(Oc4ccccc4)cc3Cl)c12)NCCOCCOCCOCCOCCOCCOCCNc1cccc2c1C(=O)N(C1CCC(=O)NC1=O)C2=O (stereo not drawn) : 78.7
